Molecular target: T1, Arabidopsis thaliana phytochrome B photosensory core module (AtPhyB PCM) (Arabidopsis thaliana, UniProt P14713 1-651, covalently incorporated bilin chromophore (PCB; co-expressed Synechocystis sp. heme oxygenase 1 and pcyA))
T1 construct: A. thaliana phytochrome B, photosensory core module (PAS-GAF-PHY with N-terminal extension), residues 1-651; Pr state (far-red light or dark) and Pfr state (red light; Pfr/Pr about 0.56/0.44) are told apart by the assays; In the cell experiments other constructs were used (PCM-VP16; PCM 1-650 with CAAX); source: E. coli BL21(DE3), plasmid pDG282, purified (Ni-NTA IMAC, anion exchange)
T1 sequence (looked up): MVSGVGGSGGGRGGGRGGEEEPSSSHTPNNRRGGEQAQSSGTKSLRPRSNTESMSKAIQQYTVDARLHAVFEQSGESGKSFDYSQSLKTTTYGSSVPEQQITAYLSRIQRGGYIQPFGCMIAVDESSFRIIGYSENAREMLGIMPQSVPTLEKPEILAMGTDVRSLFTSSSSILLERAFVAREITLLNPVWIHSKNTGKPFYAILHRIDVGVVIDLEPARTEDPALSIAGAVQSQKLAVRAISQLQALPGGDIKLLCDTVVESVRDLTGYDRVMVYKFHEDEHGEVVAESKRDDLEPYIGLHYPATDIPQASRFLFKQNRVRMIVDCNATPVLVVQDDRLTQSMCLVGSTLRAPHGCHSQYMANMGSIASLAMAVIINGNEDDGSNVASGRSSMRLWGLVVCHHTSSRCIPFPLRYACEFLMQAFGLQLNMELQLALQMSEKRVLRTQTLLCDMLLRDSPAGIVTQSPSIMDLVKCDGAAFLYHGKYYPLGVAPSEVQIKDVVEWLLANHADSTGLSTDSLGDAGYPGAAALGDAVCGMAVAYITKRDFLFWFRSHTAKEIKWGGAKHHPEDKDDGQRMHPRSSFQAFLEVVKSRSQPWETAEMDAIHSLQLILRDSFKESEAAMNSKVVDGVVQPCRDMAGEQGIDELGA
Test: fluorescence polarisation; anisotropy of EYFP; 20 nM AtPIF-EYFP constant, AtPhyB PCM 0-10 µM titrated, red light (640 nm), Pfr state; KD corrected for the Pfr fraction (about 0.56); 20 mM HEPES/HCl pH 7.3, 10 mM NaCl, 100 µg/mL BSA; single-site isotherm
Conditions: both partners purified
pKd: −log10 of the molar value.

{"binder": "MVDEVVELVWENGQISTQSQSSRSR (domain or fragment) [P3.As-EYFP]", "comparator": "=", "pKd": 6.17}
{"binder": "P3.AA-EYFP (domain or fragment) MVDEVVELVWENGQISTQSQSSRSRNIPPPQANSSRAREIGNGSKTTMVDEIPMSVPSLVDEVVELVWENGQISTQSQSSRSRFVPWLNHH", "comparator": "=", "pKd": 6.43}
{"binder": "P3.AAfus-EYFP (domain or fragment) MVDEVVELVWENGQISTQSQSSRSRVDEVVELVWENGQISTQSQSSRSRFVPWLNHH", "comparator": "=", "pKd": 6.64}
{"binder": "MDQEYMELVFENGQILAKGQRSN (domain or fragment) [P6.As-EYFP]", "comparator": "=", "pKd": 6.15}
{"binder": "MVDEVVELVWENGQISTQSQ (domain or fragment) [P3.A19-EYFP]", "comparator": "<", "pKd": 6.00}
{"binder": "MVDEVVELVWENGQISTQSQSSRSRMTGLSQDDDFVPWLNHH (domain or fragment) [P3.fus-EYFP]", "comparator": "=", "pKd": 6.57}
{"binder": "MDQEYMELVFENGQILAKGQ (domain or fragment) [P6.A19-EYFP]", "comparator": "<", "pKd": 5.70}
{"binder": "AtPIF6 (1-100)-EYFP, P6.100 (domain or fragment, Arabidopsis thaliana, UniProt Q8L5W7 1-100, looked up, A. thaliana PIF6, residues 1-100; His6-SUMO only on the pET-19b construct that was purified; the pET-28c construct used in lysate has the same AtPIF part, linker and EYFP; also called P6.100-EYFP; source: E. coli BL21(DE3): in crude lysate (pET-28c), and purified (pET-19b; IMAC, SENP2 cleavage, second IMAC, optional anion exchange); not shown: His6-SUMO, N-terminal, cleaved) MMFLPTDYCCRLSDQEYMELVFENGQILAKGQRSNVSLHNQRTKSIMDLYEAEYNEDFMKSIIHGGGGAITNLGDTQVVPQSHVAAAHETNMLESNKHVD", "comparator": "=", "pKd": 8.00}
{"binder": "AtPIF3 (1-100)-EYFP, P3.100 (domain or fragment, Arabidopsis thaliana, UniProt O80536 1-100, looked up, A. thaliana PIF3, residues 1-100; His6-SUMO only on the pET-19b construct that was purified; the pET-28c construct used in lysate has the same AtPIF part, linker and EYFP; also called P3.100-EYFP; source: E. coli BL21(DE3): in crude lysate (pET-28c), and purified (pET-19b; IMAC, SENP2 cleavage, second IMAC, optional anion exchange); not shown: His6-SUMO, N-terminal, cleaved) MPLFELFRLTKAKLESAQDRNPSPPVDEVVELVWENGQISTQSQSSRSRNIPPPQANSSRAREIGNGSKTTMVDEIPMSVPSLMTGLSQDDDFVPWLNHH", "comparator": "=", "pKd": 6.70}
{"binder": "P6.AA-EYFP (domain or fragment) MDQEYMELVFENGQILAKGQRSNVSLHNQRTKSIMDLYEAEYNEDFMKSIIHGGGGDQEYMELVFENGQILAKGQRSNTNMLESNKHVD", "comparator": "=", "pKd": 6.44}
{"binder": "MVDEVVELVWENGQISTQSQSSRSRNIPPPQANSSRAREIGN (domain or fragment) [P3.A-EYFP]", "comparator": "=", "pKd": 6.66}

Origin of values: paper PMC6888877
